# System: HBV (genotype C_AT; wild-type strain)
# Protocol: Anti-HBV effect on HBV-infected Huh-7 cells, HBV-DNA in supernatant by real-time PCR (wild-type strain)
# Type: cell-based
# Test Settings: Hepatitis B virus, 72 h; Huh-7 cells, genotype C_AT wild-type HBV, three days culture, HBV-DNA in supernatant (FIG. 1A); read-out: 50%-inhibition concentration (IC50)
Measured Quantity: IC50

Exercise: Would you kindly share the measured IC50 for CC#CCOc1ccc(C[C@H](NC(=O)[C@@H](/C=C/CCCCCCC(=O)CCCCCCC)[C@@](O)(CC(=O)O)C(=O)O)C(=O)O)cc1 [compound represented by formula (III)] ?
Solution: ~3 µM
